Source: ChEMBL document CHEMBL4513216

The compounds listed here are annotated with their cytotoxicity at 10 µM.
- run_description: Toxicity liver stage against HepG2, at 10uM
- Assay type: cell-based
- Design: test concentration 10 uM, cell line HepG2-A16-CD81EGFP
- run_conditions: human, HepG2-A16-CD81EGFP cells; read-out: INHIBITION
All answers are understood in %, so give the number only.

CC(=O)c1ccc(C(=O)NCc2cccnc2N2CCCC(O)C2)s1 (stereo not given) = -0.147

If you can, please state the reported cytotoxicity at 10 µM value of COCCCNC(=O)CN(C)C(=O)c1ccccc1O .
-7.04

Request: CC(Cn1cncn1)NCc1nncn1C1CCCCC1 (stereo not given)
-10.4

Request: Cc1sc(Oc2ccccc2Cl)nc1C(=O)O
1.95

Request: CCOCCOCc1cccc(CNc2cncc(-n3cccn3)n2)c1
7.74

Request: c1cnnc(N2CCCC2CNCc2nc3ccccc3o2)c1 (stereo not given)
-10.9

Request: COc1ncccc1CN1CCC2(CC1)COCCN2C
16.6

Request: CC(NC(=O)NCCCN1CCCCCC1=O)c1nncn1C (stereo not given)
-0.734

Request: CC(C)(C)C1SCC(=O)Nc2c1c(O)nn2C1CCCCC1 (stereo not given)
-16.7

Request: CN(C)CCCN(C)c1nccc(N2CCN[C@H]3CS(=O)(=O)C[C@H]32)n1
-0.0813

Request: CC(C)N(C(=O)c1csc(-c2ccoc2)n1)C1CCOCC1
-1.18

Request: CCN1CCCn2c(nc(CNC(=O)c3ccsc3)cc2=O)C1
1.16

Request: CC(C)N1CCc2[nH]nc(C(=O)N3CCCC3C)c2C1 (stereo not given)
-6.25

Request: CC(CCN1CCC(n2cc(CCO)nn2)CC1)c1ccccc1 (stereo not given)
3.23

Request: CSc1nsc(NC(=O)c2cc(C3CC3)nn2C)n1
6.86
